# Lookup of reported melting point keyed by entry

Some solved cases for reference:
| Compound | Value reported |
| --- | --- |
| O=S(=O)(NCCCCOc1ccc(-c2cc[nH]n2)cc1)c1ccc(Br)cc1 | 157 to 158 °C |
| CCCCN1C(=O)N(C2CCN(CC3CCCCC3)CC2)C(c2ccccc2)c2ccccc21 (stereo not given) | 115 to 117 °C |
| Cc1oc(-c2cccc(-c3ccc(C(=O)O)cc3)c2)nc1CCOc1cccc(OC(C)(C)C(=O)O)c1 | 184 °C |
| COCCONC(=O)c1nc(-c2ccc(Cl)c(OC)c2F)cc(N)c1Cl | 155 to 157 °C |

If you can, please state the reported melting point value of COCOc1c(NC(=O)Nc2ccccc2)cc(OC)cc1C(C)(C)C .
121 to 123 °C

###

# Lookup of reported melting point keyed by entry

Some solved cases for reference:
| Compound | melting point |
| --- | --- |
| Cc1ccc(S(=O)(=O)Nc2cccc3cc(C(=O)O)[nH]c23)cc1 | 268 to 269 °C |
| Cn1ccc(-c2ccc3c(ccn3-c3ccc(F)cc3)c2)n1 | 123 to 125 °C |
| COc1ccc2nccc(CCCC3CCCNC3)c2c1 (stereo unspecified) | 110 °C |
| Cc1ccc(Oc2ccc(C)cc2CC(=O)O)cc1 | 101 to 104 °C |
| COc1ccccc1Oc1c(N)nc(-c2ncccn2)nc1OCCOc1ncc(Br)cn1 | 124 to 128 °C |

If you can, please state the reported melting point value of CN(C)Cc1ccccc1C(O)c1ccsc1 (stereo unspecified) .
77 to 78 °C

If you can, please state the reported melting point value of CCOC=C1C(=O)N(c2cccc(Cl)c2)c2ccccc21 .
132 to 134 °C

If you can, please state the reported melting point value of COC(=O)c1ccc(CNC(=O)C2Cc3ccccc3N2S(=O)(=O)c2ccc(-c3ccc(F)cc3)cc2)cc1 (stereo unspecified) .
66 to 73 °C

If you can, please state the reported melting point value of O=C(O)CCc1cc(CCN2CCC(C(=O)c3ccc(F)cc3)CC2)cc2c1CCC(NS(=O)(=O)c1ccc(Cl)cc1)C2 (stereo unspecified) .
210 °C

If you can, please state the reported melting point value of COc1ccc(Nc2ccnc3nc(C)c(O)cc23)cc1 .
169 to 174 °C

If you can, please state the reported melting point value of CCCn1nc2c(N)nc3c(c2c1CCCc1cc(C(C)C)no1)CCCC3 .
147 to 149 °C

If you can, please state the reported melting point value of CN(C)c1ccc(C=O)c([N+](=O)[O-])c1 .
115 to 116 °C

If you can, please state the reported melting point value of Cc1cc(Cl)ccc1Cn1nc(C(C)(C)O)c2ccccc21 .
72 to 74 °C

If you can, please state the reported melting point value of Cc1ccc(C(N)=O)cc1F .
161 to 163 °C

If you can, please state the reported melting point value of CC(=CCO)c1ccc(C2CCCCC2)cc1 .
54 to 55 °C

If you can, please state the reported melting point value of C=CCc1ccc2oc(C(=O)O)cc(=O)c2c1O .
222 to 224 °C

If you can, please state the reported melting point value of CCOC(=O)C(C)(NC(=O)CNC=O)C(=O)OCC .
98 to 99 °C

If you can, please state the reported melting point value of O=C(O)CCS(=O)(=O)CCCl .
138 to 139 °C

###

Assay endpoint: melting point

Some solved cases for reference:
| Molecule | Value reported |
| --- | --- |
| OC(Cn1cncn1)(c1ccc(F)cc1)c1ccccc1Cl (centres undefined) | 115 to 116 °C |
| OC(c1ccc(F)cc1)c1cccnc1 (centres undefined) | 45 to 47 °C |
| C[C@@H](n1cnn(-c2ccc(OCC(F)(F)C(F)(F)F)cc2)c1=O)[C@@]1(c2ccc(F)cc2F)CO1 | 128 to 129 °C |
| CCOc1nn(Cc2ccc(Cl)cc2Cl)cc1CCCOc1cc(CCC(=O)O)n(Cc2ccccc2)n1 | 84 to 85 °C |

If you can, please state the reported melting point value of Cc1ccccc1CNC(=O)c1ccc2cnccc2n1 .
120 to 121 °C

If you can, please state the reported melting point value of COc1ccc(C=CC(=O)O)cc1-c1cc2c(cc1OCCCCCCCC(=O)OC(C)(C)C)C(C)(C)CCC2(C)C .
126 to 128 °C

If you can, please state the reported melting point value of CCn1nnnc1C(CO)=C(c1ccc(F)cc1)c1ccc(F)cc1 .
103 to 111 °C

If you can, please state the reported melting point value of CC(=O)O[C@H]1[C@H](OC(C)=O)[C@@H](CCl)OC[C@@H]1OC(C)=O .
129 to 131 °C

If you can, please state the reported melting point value of CC(=O)Nc1ccc(NC(=O)c2ccc(O)cc2)cc1 .
160 °C

###

# Lookup of reported melting point keyed by entry

| Substance smiles | Value reported |
| --- | --- |
| CCCCCCCCCCCCCCCCCC(CCCCCCCCCCCCCCCCC)=NO | 66 to 67 °C |
| O=C1C(=Cc2ccc(Br)cc2)CCc2cc(OCCc3c[nH]cn3)ccc21 | 176 to 178 °C |

If you can, please state the reported melting point value of CCS(=O)(=O)N(c1cc(-c2nsc(C(F)(F)F)c2Cl)c(Cl)cc1Cl)S(=O)(=O)CC .
153 to 154 °C

If you can, please state the reported melting point value of Cc1ccc(C(=O)N2CCCC(c3ccc(Cl)cc3)=N2)cc1 .
163 to 166 °C

If you can, please state the reported melting point value of O=COC1(N=NC2(OC=O)CCCCC2)CCCCC1 .
97 to 99.5 °C

###

Assay endpoint: melting point (°C)
Record the value in °C, omitting the unit from your answer.

| Substance smiles | Reading unit | Value reported |
| --- | --- | --- |
| COc1ccc(N2CCN(n3c(C)n[nH]c3=O)CC2)cc1 | °C | 264 |

Now consider the entry below.
If you can, please state the reported melting point value of FC(F)(F)c1cc(-c2ccc(Cl)c(Cl)c2)nc2c(-c3cccnc3)cnn12 .
224

###

# Lookup of reported melting point keyed by entry

Some solved cases for reference:
| Molecule | Value reported |
| --- | --- |
| COC(CC(=O)c1ccc(Br)cc1)C(=O)c1ccc(Br)cc1 (centres undefined) | 153 to 154 °C |
| COC1(c2cccc(Sc3ccc4c(c3)C(C)(C)S(=O)(=O)C4(C)C)c2)CCOCC1 | 133 to 135 °C |
| Cn1c(Oc2cccc(N=C=S)c2)nc2ccccc21 | 121 to 124 °C |
| COc1cc(N)c(Cl)cc1C(=O)NC1C=NN(C)C1 (centres undefined) | 173 to 175 °C |
| Cc1oc(-c2ccccc2)nc1COc1nn(Cc2ccc(Oc3ccccc3)cc2)cc1CCC(=O)O | 120 to 121 °C |
| Cc1noc([C@@H](Cc2ccccc2)NC(=O)[C@@H](Cc2ccc3ccccc3c2)NC(=O)c2cccc(CNC(=O)OC(C)(C)C)c2)n1 | 176 to 178 °C |
| Cc1ccc(-c2ccc3c(c2)C=C(C(=O)Nc2ccc(CN(C)C4CCOCC4)cc2)CCC3)cc1 | 161 to 162 °C |
| O=C1NC(=O)C(c2c[nH]c3ccccc23)=C1c1c[nH]c2ccccc12 | 234 °C |
| CC(=O)CC(=O)CCCCCCCC(=O)CC(C)=O | 73 to 74 °C |
| COc1ccc2c(=O)cc(-c3ccccc3Cl)oc2c1 | 148 to 150 °C |

If you can, please state the reported melting point value of O=NCNC1=Nc2sc(Cl)cc2C(c2ccccc2)=NC1 .
108 to 110 °C

If you can, please state the reported melting point value of COC(=O)N1C2CCC1CC(=O)C2 .
60 to 61 °C

If you can, please state the reported melting point value of N=C(N)Nc1ncc(Cl)c2ccc(S(=O)(=O)N(CCOC3CCCCO3)C3(C(=O)O)CCCC3)cc12 (centres undefined) .
281 to 289 °C

If you can, please state the reported melting point value of COCCN(C)c1c(S(=O)(=O)C(F)(F)F)c(C#N)nn1-c1c(Cl)cc(C(F)(F)F)cc1Cl .
75 °C

If you can, please state the reported melting point value of COc1ccc(N2CCN(c3c(C)c(C)c4c(c3C)CC(C)(Cn3ccnc3C)O4)CC2)cc1 (centres undefined) .
86 to 90 °C

###

Assay endpoint: melting point

Some solved cases for reference:
| Compound | Value reported |
| --- | --- |
| Cc1nc(N2CCN(Cc3ccccc3C(=O)O)C2=O)sc1C(=O)NCc1ccccc1 | 153 to 156 °C |
| CC(=O)SCc1ccc([N+](=O)[O-])cc1[N+](=O)[O-] | 78 to 79 °C |
| CC(C)Cn1c(CONS(C)(=O)=O)nc2c(N)nc3ccccc3c21 | 215 to 216 °C |
| Clc1nc(Cl)nc(N2CCc3ccccc32)n1 | 254 to 256 °C |
| Cc1nc(N2CCCC2=O)sc1C(=O)NCc1ccccc1 | 222 to 224 °C |

Now consider the entry below.
If you can, please state the reported melting point value of O=Cc1c(Cl)cncc1Cl .
110 to 111 °C
